Test system: 192522-019-R-J2-PDC complex tumor spheroid viability;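 further: spheroids exposed to drugs for seven days before reading; 100% = DMSO vehicle control viability in luminescence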
test_protocol: Anticancer human tumor 192522-019-R-J2-PDC patient-derived colon adenocarcinoma cell line growth inhibition [POLQ]
measurement_setup: second compound 10 µM; first compound 0.0316 µM; stronger effect = lower value
Description: Multicellular complex tumor spheroid response to Polymerase (POL) inhibitors (novobiocin, ART-558, RP6685) in combination with a variety of drugs and investigational agents in selected tumor cell lines The POL inhibitors (novobiocin, ART-558, and RP6685) were evaluated both individually and in combination with standard of care and investigational anticancer small molecules within a complex spheroid model of solid tumors. . […]
The following molecules are listed with their measured viability, T/C values.

molecule	measurement_target	viability, T/C (%)
COc1ccc([C@@H](O)c2cc(-c3ncnc4cc(N5CCOCC5)ccc34)c(F)cc2Cl)nn1 + COC1C(OC(N)=O)C(O)C(Oc2ccc3c(O)c(NC(=O)c4ccc(O)c(CC=C(C)C)c4)c(=O)oc3c2C)OC1(C)C	192522-019-R-J2-PDC complex tumor spheroid viability	103
C#Cc1c(F)ccc2cc(O)cc(-c3ncc4c(N5CC6CCC(C5)N6)nc(OCC56CCCN5CC(F)C6)nc4c3F)c12 (stereo not given) + COC1C(OC(N)=O)C(O)C(Oc2ccc3c(O)c(NC(=O)c4ccc(O)c(CC=C(C)C)c4)c(=O)oc3c2C)OC1(C)C	192522-019-R-J2-PDC complex tumor spheroid viability	95.2
O=C(Nc1ccc(O)c(NS(=O)(=O)c2ccc(F)cc2)c1)c1ccc(-c2ccccc2)cc1 + COC1C(OC(N)=O)C(O)C(Oc2ccc3c(O)c(NC(=O)c4ccc(O)c(CC=C(C)C)c4)c(=O)oc3c2C)OC1(C)C	192522-019-R-J2-PDC complex tumor spheroid viability	95.9
COc1cccc(OCCCN)c1-c1cc(Nc2cnc(C#N)cn2)n[nH]1 + COC1C(OC(N)=O)C(O)C(Oc2ccc3c(O)c(NC(=O)c4ccc(O)c(CC=C(C)C)c4)c(=O)oc3c2C)OC1(C)C	192522-019-R-J2-PDC complex tumor spheroid viability	38.4
CC1COCCN1c1cc(-c2ccnn2C)c2ccnc(-c3ccn[nH]3)c2n1 (stereo not given) + Nc1ccc(C#CCN(C(=O)Cc2ncc(C(F)(F)F)cc2C(F)(F)F)c2ccc(F)cc2)nn1	192522-019-R-J2-PDC complex tumor spheroid viability	97.8
CCc1cc2c(N3CCc4c(cc(Cn5ccnc5)cc4-c4cn(C)nc4C(F)(F)F)C3=O)ccnc2c(OC)n1 + COC1C(OC(N)=O)C(O)C(Oc2ccc3c(O)c(NC(=O)c4ccc(O)c(CC=C(C)C)c4)c(=O)oc3c2C)OC1(C)C	192522-019-R-J2-PDC complex tumor spheroid viability	97.5
CC[C@@]1(O)C(=O)OCc2c1cc1n(c2=O)Cc2cc3c(CN(C)C)c(O)ccc3nc2-1 + COC1C(OC(N)=O)C(O)C(Oc2ccc3c(O)c(NC(=O)c4ccc(O)c(CC=C(C)C)c4)c(=O)oc3c2C)OC1(C)C	192522-019-R-J2-PDC complex tumor spheroid viability	84.8
Cn1ncnc1[C@H]1c2n[nH]c(=O)c3cc(F)cc(c23)N[C@@H]1c1ccc(F)cc1 + Cc1cccc(N(C)C(=O)C2C(O)CCN2c2nc(C)cc(C(F)(F)F)c2C#N)c1	192522-019-R-J2-PDC complex tumor spheroid viability	111
CCc1cc2c(N3CCc4c(cc(Cn5ccnc5)cc4-c4cn(C)nc4C(F)(F)F)C3=O)ccnc2c(OC)n1 + Cc1cccc(N(C)C(=O)C2C(O)CCN2c2nc(C)cc(C(F)(F)F)c2C#N)c1	192522-019-R-J2-PDC complex tumor spheroid viability	104
O=C(c1cc(Cc2n[nH]c(=O)c3ccccc23)ccc1F)N1CCN(C(=O)C2CC2)CC1 + COC1C(OC(N)=O)C(O)C(Oc2ccc3c(O)c(NC(=O)c4ccc(O)c(CC=C(C)C)c4)c(=O)oc3c2C)OC1(C)C	192522-019-R-J2-PDC complex tumor spheroid viability	97.9
CC(C)n1c(=O)n(C)c2cnc3cc(F)c(-c4ccc(OCCCN5CCCCC5)nc4)cc3c21 + Cc1cccc(N(C)C(=O)C2C(O)CCN2c2nc(C)cc(C(F)(F)F)c2C#N)c1	192522-019-R-J2-PDC complex tumor spheroid viability	105
COc1ccc([C@@H](O)c2cc(-c3ncnc4cc(N5CCOCC5)ccc34)c(F)cc2Cl)nn1 + Cc1cccc(N(C)C(=O)C2C(O)CCN2c2nc(C)cc(C(F)(F)F)c2C#N)c1	192522-019-R-J2-PDC complex tumor spheroid viability	106
COc1cc(C2c3cc4c(cc3C(OC3OC5COC(C)OC5C(O)C3O)C3COC(=O)C23)OCO4)cc(OC)c1O (stereo not given) + Cc1cccc(N(C)C(=O)C2C(O)CCN2c2nc(C)cc(C(F)(F)F)c2C#N)c1	192522-019-R-J2-PDC complex tumor spheroid viability	117
CCc1cc2c(N3CCc4c(cc(Cn5ccnc5)cc4-c4cn(C)nc4C(F)(F)F)C3=O)cc(C)nc2c(OC)n1 + Nc1ccc(C#CCN(C(=O)Cc2ncc(C(F)(F)F)cc2C(F)(F)F)c2ccc(F)cc2)nn1	192522-019-R-J2-PDC complex tumor spheroid viability	102
COc1cccc2c1C(=O)c1c(O)c3c(c(O)c1C2=O)CC(O)(C(=O)CO)CC3OC1CC(N)C(O)C(C)O1 (stereo not given) + Cc1cccc(N(C)C(=O)C2C(O)CCN2c2nc(C)cc(C(F)(F)F)c2C#N)c1	192522-019-R-J2-PDC complex tumor spheroid viability	102
Nc1ccn(C2OC(CO)C(O)C2(F)F)c(=O)n1 (stereo not given) + Nc1ccc(C#CCN(C(=O)Cc2ncc(C(F)(F)F)cc2C(F)(F)F)c2ccc(F)cc2)nn1	192522-019-R-J2-PDC complex tumor spheroid viability	109
CC1COCCN1c1cc(-c2ccnn2C)c2ccnc(-c3ccn[nH]3)c2n1 (stereo not given) + COC1C(OC(N)=O)C(O)C(Oc2ccc3c(O)c(NC(=O)c4ccc(O)c(CC=C(C)C)c4)c(=O)oc3c2C)OC1(C)C	192522-019-R-J2-PDC complex tumor spheroid viability	103
CC1COCCN1c1cc(C2(O)CC3CCC(C2)O3)c2cnn(-c3ccn[nH]3)c2n1 (stereo not given) + COC1C(OC(N)=O)C(O)C(Oc2ccc3c(O)c(NC(=O)c4ccc(O)c(CC=C(C)C)c4)c(=O)oc3c2C)OC1(C)C	192522-019-R-J2-PDC complex tumor spheroid viability	93.1
O=c1[nH]cc(F)c(=O)[nH]1 + Cc1cccc(N(C)C(=O)C2C(O)CCN2c2nc(C)cc(C(F)(F)F)c2C#N)c1	192522-019-R-J2-PDC complex tumor spheroid viability	106
CCCS(=O)(=O)Nc1ccc(F)c(C(=O)c2c[nH]c3ncc(-c4ccc(Cl)cc4)cc23)c1F + COC1C(OC(N)=O)C(O)C(Oc2ccc3c(O)c(NC(=O)c4ccc(O)c(CC=C(C)C)c4)c(=O)oc3c2C)OC1(C)C	192522-019-R-J2-PDC complex tumor spheroid viability	107
